test system: aphids; assay: Biological Test On Aphid (spray on cabbage leaf in Petri dish); type: in vivo; conditions: average of four replicates; 20 aphids; 9.6% w/w reagent diluted 1000 times; 24 hours
property-name: Number of dead aphids Average
Lab note: record the figure alone, no unit after it.

Give the measured Number of dead aphids Average of CS/C(C)=N/OCc1ccc(Cl)nc1 [Example 10] .
17.5

Give the measured Number of dead aphids Average of CSc1c(C)cc(OCc2ccc(Cl)nc2)cc1C [Example 12] .
19.25

Give the measured Number of dead aphids Average of CC1(C)Cc2cccc(OCc3ccc(Cl)nc3)c2O1 [Example 14] .
16.75

Give the measured Number of dead aphids Average of O=[N+]([O-])/N=C1\NCCN1Cc1ccc(Cl)nc1 [Comparative Example 1, imidachloprid, reference compound] .
17.25

Give the measured Number of dead aphids Average of CC(C)Oc1ccccc1OCc1ccc(Cl)nc1 [Example 11] .
17.75

Give the measured Number of dead aphids Average of CNC(=O)Nc1nc2ccccc2n1Cc1csc(Cl)n1 [Example 16] .
16.75

Give the measured Number of dead aphids Average of N#CNCc1ccc(Cl)nc1 [Example 9, 6-chloro-pyridin-3-ylmethyl-cyanamide] .
19.25

Give the measured Number of dead aphids Average of CNC(=O)Nc1nc2ccccc2n1Cc1ccc(Cl)nc1 [Example 15] .
16.5

Give the measured Number of dead aphids Average of Clc1ccc(COc2cccc3ccccc23)cn1 [Example 13] .
17
